Reported values of minimum inhibitory concentration for individual entries
Tested on: Histophilus somni
Experiment: minimum inhibitory concentration (MIC)
Settings: isolate (source animal id): 228

Examples from the recorded data:
CN[C@@H]1[C@H](O)[C@H](NC)[C@H]2O[C@@]3(O)C(=O)C[C@@H](C)O[C@H]3O[C@@H]2[C@H]1O : > 64 µg/mL
CCN1CCN(c2cc3c(cc2F)c(=O)c(C(=O)O)cn3C2CC2)CC1 : ≤ 0.12 µg/mL
COc1cc(NS(=O)(=O)c2ccc(N)cc2)nc(OC)n1 : > 256 µg/mL

minimum inhibitory concentration recorded for this compound, CCCN1C[C@H](C)[C@@H](O)[C@](C)(O)[C@@H](CC)OC(=O)[C@H](C)[C@@H](O[C@H]2C[C@@](C)(OC)[C@@H](O)[C@H](C)O2)[C@H](C)[C@@H](O[C@@H]2O[C@H](C)C[C@H](N(C)C)[C@H]2O)[C@](C)(O)C[C@H]1C , is ≤ 1 µg/mL

----------
Tested on: Pasteurella multocida
Experiment: minimum inhibitory concentration (MIC)
Details: isolate (source animal id): 19
Reported values of minimum inhibitory concentration for individual entries
API: value field is a number in µg/mL; no unit string.

Examples from the recorded data:
CCCNC[C@]1(O)[C@H](C)O[C@@H](O[C@H]2[C@H](C)[C@@H](O[C@@H]3O[C@H](C)C[C@H](N(C)C)[C@H]3O)[C@](C)(O)C[C@@H](C)CN[C@H](C)[C@@H](O)[C@](C)(O)[C@@H](CC)OC(=O)[C@@H]2C)C[C@@]1(C)OC : 32
CCN1CCN(c2cc3c(cc2F)c(=O)c(C(=O)O)cn3C2CC2)CC1 : 1
CNC(C)C1CCC(N)C(OC2C(N)CC(N)C(OC3OCC(C)(O)C(NC)C3O)C2O)O1 (configuration not stated) : 4

Field: next compound
minimum inhibitory concentration recorded for this compound, CCCN1C[C@H](C)[C@@H](O)[C@](C)(O)[C@@H](CC)OC(=O)[C@H](C)[C@@H](O[C@H]2C[C@@](C)(OC)[C@@H](O)[C@H](C)O2)[C@H](C)[C@@H](O[C@@H]2O[C@H](C)C[C@H](N(C)C)[C@H]2O)[C@](C)(O)C[C@H]1C , is 8

----------
Reported values of minimum inhibitory concentration for individual entries
System: Mannheimia haemolytica
Assay: minimum inhibitory concentration (MIC)
Settings: isolate (source animal id): 313
API: value field is a number in µg/mL; no unit string.

Examples from the recorded data:
CN(C)[C@@H]1C(O)=C(C(N)=O)C(=O)[C@@]2(O)C(O)=C3C(=O)c4c(O)cccc4[C@@](C)(O)[C@H]3C[C@@H]12 : 4
C=C[C@]1(C)C[C@@H](OC(=O)CSCCN(CC)CC)[C@]2(C)[C@H](C)CC[C@]3(CCC(=O)[C@H]32)[C@@H](C)[C@@H]1O : 32

Field: next molecule
minimum inhibitory concentration recorded for this molecule, CCCNC[C@]1(O)[C@H](C)O[C@@H](O[C@H]2[C@H](C)[C@@H](O[C@@H]3O[C@H](C)C[C@H](N(C)C)[C@H]3O)[C@](C)(O)C[C@@H](C)CN[C@H](C)[C@@H](O)[C@](C)(O)[C@@H](CC)OC(=O)[C@@H]2C)C[C@@]1(C)OC , is 32

----------
Tested on: Histophilus somni
Experiment: minimum inhibitory concentration (MIC)
Details: isolate (source animal id): 288
Parameter: minimum inhibitory concentration

Examples from the recorded data:
CS(=O)(=O)c1ccc([C@@H](O)[C@@H](CF)NC(=O)C(Cl)Cl)cc1 : ≤ 0.25 µg/mL
CN[C@@H]1[C@H](O)[C@H](NC)[C@H]2O[C@@]3(O)C(=O)C[C@@H](C)O[C@H]3O[C@@H]2[C@H]1O : > 64 µg/mL
CC[C@H]1OC(=O)C[C@@H](O)[C@H](C)[C@@H](O[C@@H]2O[C@H](C)[C@@H](O)[C@H](N(C)C)[C@H]2O)[C@@H](CCN2CCCCC2)C[C@@H](C)C(=O)/C=C/C(C)=C/[C@@H]1CN1CCCCC1 : 4 µg/mL
CN1C[C@@H]2C[C@H]1CN2c1cc2c(cc1F)c(=O)c(C(=O)O)cn2C1CC1 : ≤ 0.12 µg/mL
CO/N=C(\C(=O)N[C@@H]1C(=O)N2C(C(=O)O)=C(CSC(=O)c3ccco3)CS[C@H]12)c1csc(N)n1 : ≤ 0.25 µg/mL

minimum inhibitory concentration recorded for this compound, CC1(C)S[C@@H]2[C@H](NC(=O)[C@H](N)c3ccccc3)C(=O)N2[C@H]1C(=O)O , is ≤ 0.25 µg/mL

minimum inhibitory concentration recorded for this compound, CNC(C)C1CCC(N)C(OC2C(N)CC(N)C(OC3OCC(C)(O)C(NC)C3O)C2O)O1 (configuration not stated) , is 16 µg/mL

----------
Tested on: Histophilus somni
Assay: minimum inhibitory concentration (MIC)
Conditions: isolate (source animal id): 23
Reported values of minimum inhibitory concentration for individual entries
API: value field is a number in µg/mL; no unit string.

minimum inhibitory concentration recorded for this molecule, NC[C@@H]1O[C@H](O[C@H]2[C@@H](O)[C@H](O[C@@H]3[C@@H](O)[C@H](N)C[C@H](N)[C@H]3O[C@H]3O[C@H](CN)[C@@H](O)[C@H](O)[C@H]3N)O[C@@H]2CO)[C@H](N)[C@@H](O)[C@@H]1O [Neomycin] , is 32

minimum inhibitory concentration recorded for this molecule, CC[C@H]1OC(=O)C[C@@H](O)[C@H](C)[C@@H](O[C@@H]2O[C@H](C)[C@@H](O[C@H]3C[C@@](C)(O)[C@@H](O)[C@H](C)O3)[C@H](N(C)C)[C@H]2O)[C@@H](CC=O)C[C@@H](C)C(=O)/C=C/C(C)=C/[C@@H]1CO[C@@H]1O[C@H](C)[C@@H](O)[C@@H](OC)[C@H]1OC [Tylosin] , is 2

minimum inhibitory concentration recorded for this molecule, CN[C@@H]1[C@H](O)[C@H](NC)[C@H]2O[C@@]3(O)C(=O)C[C@@H](C)O[C@H]3O[C@@H]2[C@H]1O [Spectinomycin] , is 16

----------
Test system: Escherichia coli
Assay: minimum inhibitory concentration (MIC)
Details: isolate (source animal id): 183
Parameter: minimum inhibitory concentration

Examples from the recorded data:
COc1cc(Cc2cnc(N)nc2N)cc(OC)c1OC.Cc1cc(NS(=O)(=O)c2ccc(N)cc2)no1 : ≤ 2 µg/mL
CNC(C)C1CCC(N)C(OC2C(N)CC(N)C(OC3OCC(C)(O)C(NC)C3O)C2O)O1 (stereo not given) : ≤ 1 µg/mL

minimum inhibitory concentration value, target or system Escherichia coli, for CN(C)[C@@H]1C(O)=C(C(N)=O)C(=O)[C@@]2(O)C(O)=C3C(=O)c4c(O)cccc4[C@@](C)(O)[C@H]3C[C@@H]12 : > 8 µg/mL

minimum inhibitory concentration value, target or system Escherichia coli, for CN[C@@H]1[C@H](O)[C@H](NC)[C@H]2O[C@@]3(O)C(=O)C[C@@H](C)O[C@H]3O[C@@H]2[C@H]1O : 16 µg/mL

minimum inhibitory concentration value, target or system Escherichia coli, for CS(=O)(=O)c1ccc([C@@H](O)[C@@H](CF)NC(=O)C(Cl)Cl)cc1 : > 8 µg/mL

----------
Reported values of minimum inhibitory concentration for individual entries
Tested on: Mannheimia haemolytica
Assay: minimum inhibitory concentration (MIC)
Conditions: isolate (source animal id): 30

minimum inhibitory concentration recorded for this molecule, CN1C[C@@H]2C[C@H]1CN2c1cc2c(cc1F)c(=O)c(C(=O)O)cn2C1CC1 , is 0.5 µg/mL

minimum inhibitory concentration recorded for this molecule, CN(C)[C@@H]1C(O)=C(C(N)=O)C(=O)[C@@]2(O)C(O)=C3C(=O)c4c(O)cccc4[C@@](C)(O)[C@H]3C[C@@H]12 , is > 8 µg/mL

minimum inhibitory concentration recorded for this molecule, COc1cc(Cc2cnc(N)nc2N)cc(OC)c1OC.Cc1cc(NS(=O)(=O)c2ccc(N)cc2)no1 , is ≤ 2 µg/mL

----------
Tested on: Mannheimia haemolytica
Assay: minimum inhibitory concentration (MIC)
Settings: isolate (source animal id): 321
Parameter: minimum inhibitory concentration

Examples from the recorded data:
CC[C@H]1OC(=O)C[C@@H](O)[C@H](C)[C@@H](O[C@@H]2O[C@H](C)[C@@H](O)[C@H](N(C)C)[C@H]2O)[C@@H](CCN2C[C@H](C)C[C@H](C)C2)C[C@@H](C)C(=O)/C=C/C(C)=C/[C@@H]1CO[C@@H]1O[C@H](C)[C@@H](O)[C@@H](OC)[C@H]1OC [Tilmicosin] : > 16 µg/mL
COc1cc(NS(=O)(=O)c2ccc(N)cc2)nc(OC)n1 [sulfadimethoxine] : > 256 µg/mL
CC[C@H]1OC(=O)C[C@@H](O)[C@H](C)[C@@H](O[C@@H]2O[C@H](C)[C@@H](O)[C@H](N(C)C)[C@H]2O)[C@@H](CCN2CCCCC2)C[C@@H](C)C(=O)/C=C/C(C)=C/[C@@H]1CN1CCCCC1 [Tildipirosin] : > 16 µg/mL

Field: next compound
minimum inhibitory concentration recorded for this compound, CCC[C@@H]1C[C@@H](C(=O)N[C@@H]([C@H]2O[C@H](SC)[C@H](O)[C@@H](O)[C@H]2O)[C@H](C)Cl)N(C)C1 [Clindamycin] , is 16 µg/mL
